All values here come from PubChem BioAssay (NCI).

Tested on: RXF 393 renal
Assay: NCI tumour cell line growth inhibition, 48 h
Known TGI of a selection of compounds
Numbers only here, please. The scale is µM.

// solved cases for TGI follow
>>> resultvalue("COc1cccc(Oc2ccccc2NC(=O)CNC(=O)c2cccc3ccccc23)c1")
2.19
>>> resultvalue("O=C(NNS(=O)(=O)c1ccc(Cl)cc1Cl)c1cccnc1Nc1ccc(Cl)cc1")
43.8
>>> resultvalue("c1ccc(N=C2c3ccsc3C(=Nc3ccccc3)c3ccsc32)cc1")
3.52
>>> resultvalue("COc1ccc(/C=C(\\C)[N+](=O)[O-])cc1OC")
3.18
>>> resultvalue("C[C@@H]1Cc2cc(O)ccc2[C@H]2CC[C@]3(C)/C(=C/COCCN(C)C)CC[C@H]3[C@H]12 (tested in a mixture with another compound)")
0.316
>>> resultvalue("N#CC1(C#N)C(c2ccccc2)C=CC12OCCCO2 (stereo not given)")
49.2

Q: Requested read-out TGI, target or system RXF 393 renal, entry COc1cc(-c2nn(-c3cccc(NC(=O)CCN4CCN(Cc5ccccc5)CC4)c3)cc2-c2ccncc2)ccc1Cl
Result: 2.28

Q: Requested read-out TGI, target or system RXF 393 renal, entry Nc1nc2c(C(=O)O)c3ccc([N+](=O)[O-])cc3c(=O)n2c2ccccc12
Result: 45.6

###

Known TGI of a selection of compounds
Tested on: SK-OV-3 ovarian
Assay: NCI tumour cell line growth inhibition, 48 h
Numbers only here, please. The scale is µM.

>>> resultvalue("COc1cc(Oc2nc3ccc(C(F)(F)F)cc3nc2-c2ccccc2)cc(OC)c1OC")
33.4

Q: Look up TGI for this compound: CN(CCCNC(=O)c1cc(-c2ccccc2)nc2ccccc12)CCCNC(=O)c1cc(-c2ccccc2)nc2ccccc12
Result: 26.2

###

Tested on: UO-31 renal
Experiment: NCI tumour cell line growth inhibition, 48 h
quantityMeasured: TGI (µM)
Numbers only here, please. The scale is µM.

>>> resultvalue("O=C(c1ccccc1)c1c(CC(O)c2ccncc2)n(C(=O)c2ccccc2)c2ccccc12 (stereo not given)")
31.7

Below: the item to evaluate.
Q: Look up TGI for this compound: CC[C@@]1(O)C(=O)OCc2c1cc1n(c2=O)Cc2c-1nc1ccccc1c2/C=N\NC(=O)C(N)CCSC (stereo not given in full)
Result: 0.277

###

Test system: DU-145 prostate
Assay: NCI tumour cell line growth inhibition, 48 h; in the data active = GI50 below about 0.43 µM; inactive = the rest
Respond with a class label; see active, inactive

Previously resolved entries follow.
>>> classassignment("Cc1cc(C)c(C2CNCc3cc4c(cc32)CNCC4c2c(C)cc(C)cc2C)c(C)c1 (configuration not stated)")
"inactive"
>>> classassignment("C/C(=N\\O)c1cccc(Nc2cc(-n3ccnc3)c3ccccc3n2)c1")
"inactive"
>>> classassignment("CCc1c(C)nc2sc3c(N)ncnc3c2c1C")
"inactive"
>>> classassignment("Oc1cccc2c1NCCC2")
"active"
>>> classassignment("C[n+]1c2ccccc2nc2c(N)cc(N)cc21")
"inactive"

Q: What is the recorded call for this compound in the test? CN1CCN(CCCCCN=c2cc3c(=O)n(CCCCCN4CCN(C)CC4)c(=O)c4c(NCCCCCN5CCN(C)CC5)cc5c(O)n(CCCCCN6CCN(C)CC6)c(=O)c2c5c4-3)CC1
Result: inactive

Q: What is the recorded call for this compound in the test? COC(=O)c1cc(-c2ccc(OC)c(OC)c2)[nH]c1N/N=C/c1c(Cl)cccc1Cl
Result: inactive

Q: What is the recorded call for this compound in the test? Oc1c(-c2cc(C(F)(F)F)[nH]n2)cc(Cl)c(OCc2ccc(Cl)cc2)c1-c1ccc(Cl)c(C(F)(F)F)c1
Result: inactive
